Reference for the values: patent US20260226154A1

SYSTEM TESTED: T1, PACAP38 (human, not fully specified)
T1 peptide: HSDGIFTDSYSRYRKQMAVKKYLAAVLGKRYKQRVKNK
METHOD NOTES: cell-based or functional assay
Recorded measurements of PACAP-38 IC50, one per entry
Kindly provide the numeric value in nM only, without the unit symbol.

Input 890C (antibody, human IgG2, kappa, V domains shown, Full chains as named '890C heavy chain' / '890C light chain' (IgG2DASS, kappa); also called anti-PACAP antibody 890C) VH: EVQLVQSGAEVKKPGSSVKVSCKASGGTFSDVYMHWVRQAPGQGLEWMGLIYPIFADTRYAQKFQGRVTITADESTSTAYMELSSLRSEDTAVYYCAIDQDGSFAYWGQGTLVTVSS VL: DIVMTQSPDSLAVSLGERATINCKSSQSLLDADGKTYLNWLQQKPGQPPKRLIYWASTRESGVPDRFSGSGSGTDFTLTISSLQAEDVAVYYCWQGTWFDLTFGGGTKVEIKR . Output PACAP-38 IC50: 0.32

# next binder below
Input 917B (antibody, V domains shown, Humanized anti-PACAP variant) VH: EVQLVQSGAEVKKPGSSVKVSCKASGGTFSDSYMHWVRQAPGQGLEWMGLIYPIFADTRYAQKFQGRVTITADESTSTAYMELSSLRSEDTAVYYCAIDQDGSFAYWGQGTLVTVSS VL: DIVMTQSPDSLAVSLGERATINCKSSQSLLDSDGKTYLNWLQQKPGQPPKRLIYLVSTRESGVPDRFSGSGSGTDFTLTISSLQAEDVAVYYCWQGTWFDLTFGGGTKVEIK . Output PACAP-38 IC50: 0.19
